Target: Progesterone receptor (Homo sapiens)
Assay: qHTS assay to identify small molecule antagonists of the progesterone receptor (PR) signaling pathway (AID 1346795); further: potency means the concentration at half of the fitted maximal effect
Details: PR-UAS-bla HEK293T, beta-lactamase FRET ratio, 16 h; series mostly up to 92.4 µM
Records with an inconclusive call do not appear. Activity calls are given as the source filed them. The call rests on the fitted dose curve; in most records, active means well fitted inhibition curve with a large enough effect in the signal ratio in the repeat runs (not every such curve was filed as active); inconclusive means weak or mixed curves; inactive means flat fitted curve, though single readings scatter; the % refers to the signal ratio.
measured_property: Potency

[[record]]
compound = "C[C@H]1[C@H]2CC[C@H]3[C@@H]4CC=C5C[C@@H](N(C)C)CC[C@]5(C)[C@H]4CC[C@]23CN1C"
measured_on = "Progesterone receptor (Homo sapiens)"
measured_property = "Potency"
measurement = "inactive"

[[record]]
compound = "Nc1ccc(N)c2ccccc12"
measured_on = "Progesterone receptor (Homo sapiens)"
measured_property = "Potency"
measurement = "54.4 µM (active)"

[[record]]
compound = "CCC(C)(C)C1CCCCC1OC(C)=O (stereo not drawn)"
measured_on = "Progesterone receptor (Homo sapiens)"
measured_property = "Potency"
measurement = "inactive"

[[record]]
compound = "CN(C)CCCOC1(Cc2ccccc2)CCCCCC1"
measured_on = "Progesterone receptor (Homo sapiens)"
measured_property = "Potency"
measurement = "inactive"

[[record]]
compound = "Oc1c(Cl)cc(Cl)c2cccnc12"
measured_on = "Progesterone receptor (Homo sapiens)"
measured_property = "Potency"
measurement = "0.841 µM (active)"

[[record]]
compound = "Cc1cc(O)c(Cl)c(C)c1Cl"
measured_on = "Progesterone receptor (Homo sapiens)"
measured_property = "Potency"
measurement = "inactive"

[[record]]
compound = "O=C(N/N=C/c1ccccc1O)c1ccncc1"
measured_on = "Progesterone receptor (Homo sapiens)"
measured_property = "Potency"
measurement = "10.6 µM (active)"

[[record]]
compound = "Nc1ccc2cc(S(=O)(=O)O)cc(O)c2c1N=Nc1ccccc1C(F)(F)F"
measured_on = "Progesterone receptor (Homo sapiens)"
measured_property = "Potency"
measurement = "inactive"

[[record]]
compound = "CCc1cc(SCc2sc(-c3ccc(C(F)(F)F)cc3)nc2CN2CCN(c3ccc(OC)cc3)CC2)ccc1OCC(=O)O"
measured_on = "Progesterone receptor (Homo sapiens)"
measured_property = "Potency"
measurement = "24.3 µM (active)"

[[record]]
compound = "CCOC(=O)O[C@]1(C(=O)OCCl)CC[C@H]2[C@@H]3CCC4=CC(=O)C=C[C@]4(C)[C@H]3[C@@H](O)C[C@@]21C"
measured_on = "Progesterone receptor (Homo sapiens)"
measured_property = "Potency"
measurement = "inactive"

[[record]]
compound = "CCCCCCCCCCCC(=O)NCCCN(C)C"
measured_on = "Progesterone receptor (Homo sapiens)"
measured_property = "Potency"
measurement = "61.1 µM (active)"

[[record]]
compound = "CCCCCCCCOc1ccccc1C(=O)Nc1ccc(C(=O)OCC[N+](C)(CC)CC)cc1"
measured_on = "Progesterone receptor (Homo sapiens)"
measured_property = "Potency"
measurement = "inactive"

[[record]]
compound = "CCCC(C)c1ccccc1O (stereo not drawn)"
measured_on = "Progesterone receptor (Homo sapiens)"
measured_property = "Potency"
measurement = "inactive"


====

Test: qHTS assay to identify small molecule agonists of the AP-1 signaling pathway (AID 1159526)
Details: ME-180 (cervical carcinoma) AP-1-bla reporter, beta-lactamase FRET ratio, 5 h; series mostly up to 76.8 µM
Results filed as inconclusive are left out. Activity calls are given as the source filed them. Calls follow the shape of the full dose curve.
measured_property: outcome

[[record]]
molecule = "Fc1ccc(C(c2ccc(F)cc2)N2CCN(C/C=C/c3ccccc3)CC2)cc1"
measured_property = "outcome"
measurement = "inactive"

[[record]]
molecule = "CC(C)OC(=O)c1cc2c(OCC(O)CNC(C)(C)C)cccc2[nH]1 (stereo unspecified)"
measured_property = "outcome"
measurement = "inactive"

[[record]]
molecule = "O=C(OCC1CO1)C1CCCCC1C(=O)OCC1CO1 (stereo unspecified)"
measured_property = "outcome"
measurement = "inactive"

[[record]]
molecule = "NNC(=O)c1cccc(C(=O)NN)c1"
measured_property = "outcome"
measurement = "inactive"

[[record]]
molecule = "COC(=O)C1=C(C)NC(C)=C(C(=O)OCC(C)C)C1c1ccccc1[N+](=O)[O-] (stereo unspecified)"
measured_property = "outcome"
measurement = "inactive"

[[record]]
molecule = "O=C1c2ccccc2Cc2ccccc21"
measured_property = "outcome"
measurement = "inactive"


====

Experiment: qHTS assay for identifying genotoxic compounds that show differential cytotoxicity against isogenic chicken DT40 cell lines with known DNA damage response pathways - Rev3 mutant cell line (AID 743014); further: nearly all actives have a fitted effect of over 55% in size
Conditions: chicken DT40 Rev3-/- viability, CellTiter-Glo, 40 h; series mostly up to 68.4 µM
Records with an inconclusive call do not appear. Activity calls are given as the source filed them. Calls follow the shape of the dose curve; as a rule, active = well fitted cell-killing curve with a large enough effect in the repeat runs; inconclusive = weak or mixed curves, or effect the other way; inactive = no such curve, though single readings can be large or run the other way.
Outcome codes: active, inactive

[[record]]
compound = "CN(C)c1ccc(SC#N)cc1"
assigned_class = "active"

[[record]]
compound = "CCCCCCCCCCn1cc[n+](CCCCCCCCCC)c1C"
assigned_class = "active"

[[record]]
compound = "Cc1cc(=O)oc2cc(N(C)C)ccc12"
assigned_class = "active"

[[record]]
compound = "CCC(Cl)C(Cl)C(Cl)CC(Cl)C(Cl)C(C)Cl (centres undefined)"
assigned_class = "active"

[[record]]
compound = "CCOC(=O)/C=C(C)/C=C/C=C(C)/C=C/c1c(C)cc(OC)c(C)c1C"
assigned_class = "active"

[[record]]
compound = "O=c1cccccc1O"
assigned_class = "active"

[[record]]
compound = "Cc1ccc(-n2nc(C(C)(C)C)cc2NC(=O)Nc2ccc(OCCN3CCOCC3)c3ccccc23)cc1"
assigned_class = "active"

[[record]]
compound = "CCOc1ccc2nc3cc(N)ccc3c(N)c2c1"
assigned_class = "active"

[[record]]
compound = "CCC1=C[C@@H]2CN(C1)Cc1c([nH]c3ccccc13)[C@@](C(=O)OC)(c1cc3c(cc1OC)N(C)[C@H]1[C@@](O)(C(=O)OC)[C@H](OC(C)=O)[C@]4(CC)C=CCN5CC[C@]31[C@@H]54)C2"
assigned_class = "active"

[[record]]
compound = "[Cl][Au]([Cl])[Cl]"
assigned_class = "active"

[[record]]
compound = "OCCN1CCN(CC/C=C2/c3ccccc3Sc3ccc(C(F)(F)F)cc32)CC1"
assigned_class = "active"

[[record]]
compound = "Cc1cccc(CN2CCN(C(c3ccccc3)c3ccc(Cl)cc3)CC2)c1 (centres undefined)"
assigned_class = "active"

[[record]]
compound = "N/C(=N\\N=C\\c1ccc(Cl)cc1)N/N=C/c1ccc(Cl)cc1"
assigned_class = "inactive"

[[record]]
compound = "CSc1cnc(C)cn1"
assigned_class = "inactive"

[[record]]
compound = "N=C1N=C(N)c2ccccc21"
assigned_class = "active"

[[record]]
compound = "c1ccc(CSCc2ccccc2)cc1"
assigned_class = "inactive"

[[record]]
compound = "CO[Si](CCCNc1ccccc1)(OC)OC"
assigned_class = "active"

[[record]]
compound = "CC(C)n1nc(-c2cc3cc(O)ccc3[nH]2)c2c(N)ncnc21"
assigned_class = "active"

[[record]]
compound = "O=C(O)c1ccc(Cl)c(Cl)c1"
assigned_class = "inactive"

[[record]]
compound = "CCCCCCCC/C=C/CCCCCCCC1=NCCN1CCO"
assigned_class = "active"

[[record]]
compound = "Cc1c(C)c2c(c(C)c1OC(=O)CCC(=O)O)CC[C@@](C)(CCC[C@H](C)CCC[C@H](C)CCCC(C)C)O2"
assigned_class = "inactive"

[[record]]
compound = "CCCCCCCCCCCC[N+](C)(C)CCCCCCCCCCCC"
assigned_class = "active"

[[record]]
compound = "O=C1C=CC(=O)N1c1ccc(Cc2ccc(N3C(=O)C=CC3=O)cc2)cc1"
assigned_class = "active"

[[record]]
compound = "Oc1ccc(C2(c3ccc(O)cc3)CC3CC2C2CCCC32)cc1 (centres undefined)"
assigned_class = "inactive"


====

Assay: qHTS assay to test for compound auto fluorescence at 590 nm (red) in HepG2 cell free culture (AID 720684)
Conditions: cell-free medium autofluorescence, red 540/590 nm; series mostly up to 91.3 µM
Active and inactive are the calls of the source. Calls follow the shape of the dose curve; as a rule, active = well fitted curve in the direction sought with a large enough effect in the repeat runs; inconclusive = weak or mixed curves; inactive = flat fitted curve, though single readings scatter.
measured_property: fluorescence, % of Rose Bengal

[[record]]
molecule = "NC(=O)NS(=O)(=O)c1ccc(N)cc1"
measured_property = "fluorescence, % of Rose Bengal"
measurement = "inactive"

[[record]]
molecule = "CCCN(CCC)C(=O)C(CCC(=O)OCCCN1CCN(CCOC(=O)Cc2c(C)n(C(=O)c3ccc(Cl)cc3)c3ccc(OC)cc23)CC1)NC(=O)c1ccccc1 (stereo not given)"
measured_property = "fluorescence, % of Rose Bengal"
measurement = "inactive"

[[record]]
molecule = "CN(C)c1ccc(C2(c3ccc(N(C)C)cc3)OC(=O)c3cc(N(C)C)ccc32)cc1"
measured_property = "fluorescence, % of Rose Bengal"
measurement = "inactive"

[[record]]
molecule = "O=C(Nc1ccc(Oc2ccc(Cl)cc2)c(Cl)c1)c1cc(I)cc(I)c1O"
measured_property = "fluorescence, % of Rose Bengal"
measurement = "inactive"

[[record]]
molecule = "CCCCCCCCOC(=O)c1ccc(O)cc1"
measured_property = "fluorescence, % of Rose Bengal"
measurement = "inactive"

